# literature pull: Glutamate receptor 2 (Rattus norvegicus) pKi
# Sequence (P19491 whole entry): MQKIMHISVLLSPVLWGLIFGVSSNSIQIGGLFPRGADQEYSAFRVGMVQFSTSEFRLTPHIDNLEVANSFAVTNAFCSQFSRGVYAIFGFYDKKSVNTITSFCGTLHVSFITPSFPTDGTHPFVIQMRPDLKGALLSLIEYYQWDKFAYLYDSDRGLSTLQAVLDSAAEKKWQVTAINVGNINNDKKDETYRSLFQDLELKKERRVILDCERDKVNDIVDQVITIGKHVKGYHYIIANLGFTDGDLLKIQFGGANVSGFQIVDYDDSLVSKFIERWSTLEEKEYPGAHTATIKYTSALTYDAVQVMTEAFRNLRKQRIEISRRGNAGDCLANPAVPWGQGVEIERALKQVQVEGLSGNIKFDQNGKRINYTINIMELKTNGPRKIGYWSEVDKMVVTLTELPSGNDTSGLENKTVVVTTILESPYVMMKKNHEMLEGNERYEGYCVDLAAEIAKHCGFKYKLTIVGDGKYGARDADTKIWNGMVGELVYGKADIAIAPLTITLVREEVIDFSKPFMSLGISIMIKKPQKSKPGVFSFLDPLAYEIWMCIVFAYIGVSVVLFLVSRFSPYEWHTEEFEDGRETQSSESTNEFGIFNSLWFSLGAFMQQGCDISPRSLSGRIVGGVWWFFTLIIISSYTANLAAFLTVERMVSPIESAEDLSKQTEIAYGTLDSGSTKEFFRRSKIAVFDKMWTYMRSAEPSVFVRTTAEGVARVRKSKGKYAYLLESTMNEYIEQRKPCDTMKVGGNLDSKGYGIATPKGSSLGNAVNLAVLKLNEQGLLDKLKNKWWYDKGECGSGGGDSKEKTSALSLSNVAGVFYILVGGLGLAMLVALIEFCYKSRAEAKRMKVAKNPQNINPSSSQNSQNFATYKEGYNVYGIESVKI
pKi is a log-scale quantity: -log10 of the concentration expressed in molar.

Give recorded pKi with Glutamate receptor 2 (Rattus norvegicus) for the following compound: "CN(C)C(=O)CC[C@H](C[C@H](N)C(=O)O)C(=O)O"
4.31

Kindly state the measured pKi obtained for NC(CCCc1nonc1O)C(=O)O (stereo in doubt; (+)-18) with Glutamate receptor 2 (Rattus norvegicus).
4.70

# get_value(readout= pKi, system= Glutamate receptor 2 (Rattus norvegicus)) for "N[C@@H](C[C@@H](CCC(=O)N1CCCCC1)C(=O)O)C(=O)O"
4.15

So what pKi did "N[C@@H](C[C@@H](CCC(=O)Nc1ccccc1)C(=O)O)C(=O)O" get with Glutamate receptor 2 (Rattus norvegicus)?
4.25

Query for Glutamate receptor 2 (Rattus norvegicus): what pKi does the record show for "N[C@@H](Cn1c(=O)n(Cc2ccsc2C(=O)O)c(=O)c2cscc21)C(=O)O" ?
4.14

Identify the measured pKi of "C#CCNC(=O)CC[C@H](C[C@H](N)C(=O)O)C(=O)O" for Glutamate receptor 2 (Rattus norvegicus).
5.09

Return pKi measured with Glutamate receptor 2 (Rattus norvegicus) given this compound: "N[C@@H](Cn1c(=O)[nH]c(=O)c2ccsc21)C(=O)O"
6.30

Please tell me: pKi of Cn1nnc(O)c1CC(N)C(=O)O (racemic) , system Glutamate receptor 2 (Rattus norvegicus)?
5.73

Form entry - test system: Glutamate receptor 2 (Rattus norvegicus); read-out: pKi; compound: NC(CCc1nonc1O)C(=O)O (stereo in doubt; (+)-15)
4.40

# returns recorded pKi (system: Glutamate receptor 2 (Rattus norvegicus)) for "N[C@@H](C[C@@H](CCC(=O)NNc1ccccc1)C(=O)O)C(=O)O"
4.27

What pKi appears in the records for this compound with Glutamate receptor 2 (Rattus norvegicus)? "N[C@@H](Cn1c(=O)[nH]c(=O)c2cscc21)C(=O)O"
6.33

Param readout = pKi; param system = Glutamate receptor 2 (Rattus norvegicus); param query = "N[C@@H](Cn1c(=O)[nH]c(=O)c2ccccc21)C(=O)O" ; response: value
5.47
